Listing of recorded cAMP release, % activity, 1 µM by entry.
Measurement Target: human GLP-1 receptor (human, UniProt P43220 24-463)
Sequence (P43220 24-463): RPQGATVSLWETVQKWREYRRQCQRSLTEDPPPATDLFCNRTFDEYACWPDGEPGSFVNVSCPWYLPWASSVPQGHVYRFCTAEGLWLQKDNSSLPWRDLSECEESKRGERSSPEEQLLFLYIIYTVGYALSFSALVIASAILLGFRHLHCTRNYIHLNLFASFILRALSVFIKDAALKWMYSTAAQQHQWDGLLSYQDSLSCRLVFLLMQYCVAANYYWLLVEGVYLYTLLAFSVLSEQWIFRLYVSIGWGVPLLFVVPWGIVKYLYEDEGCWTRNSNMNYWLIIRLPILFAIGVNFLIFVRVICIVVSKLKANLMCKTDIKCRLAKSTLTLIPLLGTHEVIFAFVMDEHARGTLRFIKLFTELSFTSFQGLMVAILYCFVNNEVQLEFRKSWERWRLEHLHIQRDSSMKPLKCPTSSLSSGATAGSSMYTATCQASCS
Procedure Details: cell-based or functional assay
Non-standard residues stand in square brackets, D forms with d. No end group written: not given here. 2Cl,4OMe‑APPA = 2-amino-5-(2-chloro-4-methoxyphenyl)pentanoic acid; Bip(2'-Et-4'-OMe) = CCc1cc(OC)ccc1-c1ccc(C[C@H](N)C(=O)O)cc1; 2Cl‑APPA = 2-amino-5-(2-chlorophenyl)pentanoic acid; 2F‑APPA = 2-amino-5-(2-fluorophenyl)pentanoic acid; αMePhe(2-F) = C[C@](N)(Cc1ccccc1F)C(=O)O; hhPhe = N[C@@H](CCCc1ccccc1)C(=O)O; aThr = C[C@H](O)[C@H](N)C(=O)O; CNB = not defined here; Aib = CC(C)(N)C(=O)O
The answer is to be given in %; state only the numeric part.

Look over these answered cases.
Incoming: Entry under review: H[Aib][CNB]G[aThr][αMePhe(2-F)][aThr]SD[Bip(2'-Et-4'-OMe)][2F‑APPA] (reading uncertain; also: reduced (CH2) bonds Z9-Z10 and Z10-Z11) [Seq. ID. No. 204: H-Aib-(CNB)-G-T(allo)-(α-Me-2F-Phe)-T(allo)-SD-(CH2)-Bip(OMe)-(CH2)-(2F-APPA)] . Reported cAMP release, % activity, 1 µM?
Outgoing: 99

Incoming: Given the binder H[Aib][CNB]GTFTSD[Bip(2'-Et-4'-OMe)][2Cl‑APPA] (reading uncertain) [Seq. ID. No. 82: H-Aib-(CNB)-GTFTSD-Bip(OMe)-(2Cl-APPA)] , what is its reported cAMP release, % activity, 1 µM?
Outgoing: 99

Incoming: Any idea what cAMP release, % activity, 1 µM was measured for H[Aib][CNB]GTFTSD[Bip(2'-Et-4'-OMe)][2Cl,4OMe‑APPA] (reading uncertain) [Seq. ID. No. 84: H-Aib-(CNB)-GTFTSD-Bip(OMe)-(2Cl,4OMe-APPA)] ?
Outgoing: 94

We next turn to a different binder, shown below.
Incoming: Using the record for H[Aib][CNB]G[aThr][αMePhe(2-F)][aThr]SD[Bip(2'-Et-4'-OMe)][hhPhe] (reading uncertain; also: thioamide bonds between residues 9-10 and 10-11) [Seq. ID. No. 178: H-Aib-(CNB)-G-T(allo)-(α-Me-2F-Phe)-T(allo)-SD-(C═S)-Bip(OMe)-(C═S)-(APPA)] , report its cAMP release, % activity, 1 µM.
Outgoing: 95
